- System: HCT-15 colon
- TEST NAME: NCI tumour cell line growth inhibition, 48 h
PARAMETER: TGI (µM)
Write it as a number; the unit µM goes unstated.

Answered examples (4):
{"columns": ["MOLECULE", "TGI [µM]"],
 "data": [
  ["CCOc1cc(C=Nc2ccc(Oc3ccc(Cl)cc3)c(Cl)c2)ccc1O", 47.3],
  ["NC(=NC1C2CC3CC(C2)CC1C3)Nc1ccc(I)cc1 (stereo unspecified)", 10.2],
  ["OCC1=C[C@@](COCc2ccccc2)(OCc2ccccc2)[C@@H](OCc2ccccc2)[C@@H]1OCc1ccccc1", 57.8],
  ["CN(C)c1ccc(/C=N/Nc2ccc(-c3nc4ccccc4[nH]3)cc2)cc1", 35.7]
]}

// sample O=c1c2cc(Cl)ccc2n2nnc3ccc(NCCNCCO)c1c32 , its TGI was 2.59
